- Test system: E. coli
- Experiment description: MIC against gram-negative bacteria
- Type: cell-based
- Test conditions: Escherichia coli, E. coli AG37, HB101/pAG21-1, resistance mechanism APH(3′); read-out: MIC
Listed here: items and their measured MIC.

Molecule	MIC
CNC1C(OC2OC(CO)C(N)C(O)C2O)OC2CC(N)C(OC3C(N)CC(N)C(O)C3O)OC2C1O (centres unmarked)	4 µg/mL
NC[C@H]1O[C@H](O[C@H]2[C@H](O)[C@@H](O[C@H]3O[C@H](CO)[C@@H](O)[C@H](N)[C@H]3O)[C@H](N)C[C@@H]2N)[C@H](O)[C@@H](O)[C@@H]1O	> 256 µg/mL
NC[C@H]1O[C@H](O[C@H]2[C@H](O)[C@@H](O[C@H]3O[C@H](CO)[C@@H](O)[C@H](N)[C@H]3O)[C@H](N)C[C@@H]2N)[C@H](N)C[C@@H]1O	1 to 2 µg/mL
NC[C@@H]1O[C@H](O[C@H]2[C@@H](O)[C@H](O[C@@H]3[C@@H](O)[C@H](N)C[C@H](N)[C@H]3O[C@H]3O[C@H](CO)[C@@H](O)[C@H](O)[C@H]3N)O[C@@H]2CO)[C@H](N)[C@@H](O)[C@@H]1O	> 256 µg/mL
CN[C@@H]1[C@@H](O)[C@@H](O[C@@H]2[C@@H](O)[C@H](O[C@H]3OC(CN)=CC[C@H]3N)[C@@H](N)C[C@H]2N)OC[C@]1(C)O	0.125 µg/mL

* * *

- Test system: E. coli
- Experiment description: MIC against gram-negative bacteria
- Format: cell-based
- Test conditions: Escherichia coli, E. coli AG03, clin. isol (Gm^R); read-out: MIC
MIC overview
Value kind: MIC

Molecule	Value kind	Meas value
NC[C@H]1O[C@H](O[C@H]2[C@H](O)[C@@H](O[C@H]3O[C@H](CO)[C@@H](O)[C@H](N)[C@H]3O)[C@H](N)C[C@@H]2N)[C@H](N)C[C@@H]1O [Tobramycin]	MIC	32 µg/mL
NC[C@@H]1O[C@H](O[C@H]2[C@@H](O)[C@H](O[C@@H]3[C@@H](O)[C@H](N)C[C@H](N)[C@H]3O[C@H]3O[C@H](CO)[C@@H](O)[C@H](O)[C@H]3N)O[C@@H]2CO)[C@H](N)[C@@H](O)[C@@H]1O [Paromomycin]	MIC	8 to 16 µg/mL
CN[C@@H]1[C@@H](O)[C@@H](O[C@@H]2[C@@H](O)[C@H](O[C@H]3OC(CN)=CC[C@H]3N)[C@@H](N)C[C@H]2N)OC[C@]1(C)O [Sisomicin]	MIC	32 to 128 µg/mL
CNC1C(OC2OC(CO)C(N)C(O)C2O)OC2CC(N)C(OC3C(N)CC(N)C(O)C3O)OC2C1O (centres unmarked) [Apramycin]	MIC	16 to 32 µg/mL
NC[C@H]1O[C@H](O[C@H]2[C@H](O)[C@@H](O[C@H]3O[C@H](CO)[C@@H](O)[C@H](N)[C@H]3O)[C@H](N)C[C@@H]2N)[C@H](O)[C@@H](O)[C@@H]1O [Kanamicin A]	MIC	16 to 32 µg/mL

* * *

- Test system: E. coli
- Experiment description: MIC against gram-negative bacteria
- Format: cell-based
- Test conditions: Escherichia coli, E. coli AG01, clin. isol. (Gm^S); read-out: MIC
- From the text: Agents Chemother. 2003, 47:1496-1502.

Compound	MIC, µg/mL
NC[C@H]1O[C@H](O[C@H]2[C@H](O)[C@@H](O[C@H]3O[C@H](CO)[C@@H](O)[C@H](N)[C@H]3O)[C@H](N)C[C@@H]2N)[C@H](O)[C@@H](O)[C@@H]1O	16
CNC1C(OC2OC(CO)C(N)C(O)C2O)OC2CC(N)C(OC3C(N)CC(N)C(O)C3O)OC2C1O (stereo not shown)	16

* * *

Reported MIC is given for each of the following compounds.
- Tested on: clinical methicillin resistant Staphylococcus aureus (MRSA) isolates
- Experiment description: MIC against clinical MRSA isolates, LB microdilution assay
- Test conditions: Staphylococcus aureus, MRSA
Value kind: MIC

Smiles input	Value kind	Meas value
NC[C@@H]1O[C@H](O[C@H]2[C@@H](O)[C@H](O[C@@H]3[C@@H](O)[C@H](N)C[C@H](N)[C@H]3O[C@H]3O[C@H](CO)[C@@H](O)[C@H](O)[C@H]3N)O[C@@H]2CO)[C@H](N)[C@@H](O)[C@@H]1O	MIC	> 256 µg/mL
NC[C@H]1O[C@H](O[C@H]2[C@H](O)[C@@H](O[C@H]3O[C@H](CO)[C@@H](O)[C@H](N)[C@H]3O)[C@H](N)C[C@@H]2N)[C@H](O)[C@@H](O)[C@@H]1O	MIC	> 256 µg/mL
NCC[C@H](O)C(=O)N[C@@H]1C[C@H](N)[C@@H](O[C@H]2O[C@H](CN)[C@@H](O)[C@H](O)[C@H]2O)[C@H](O)[C@H]1O[C@H]1O[C@H](CO)[C@@H](O)[C@H](N)[C@H]1O	MIC	256 µg/mL
NC[C@H]1O[C@H](O[C@H]2[C@H](O)[C@@H](O[C@H]3O[C@H](CO)[C@@H](O)[C@H](N)[C@H]3O)[C@H](N)C[C@@H]2N)[C@H](N)C[C@@H]1O	MIC	128 to 256 µg/mL

* * *

- Test system: E. coli
- Experiment description: MIC against gram-negative bacteria
- Format: cell-based
- Test conditions: Escherichia coli, E. coli AG09, AAC(6′)-1B, resistance mechanism AAC(6′); read-out: MIC

Molecule	MIC [µg/mL]
CN[C@@H]1[C@@H](O)[C@@H](O[C@@H]2[C@@H](O)[C@H](O[C@H]3OC(CN)=CC[C@H]3N)[C@@H](N)C[C@H]2N)OC[C@]1(C)O [Sisomicin]	16
CNC1C(OC2OC(CO)C(N)C(O)C2O)OC2CC(N)C(OC3C(N)CC(N)C(O)C3O)OC2C1O (centres unmarked) [Apramycin]	8

* * *

- Tested on: E. coli
- Experiment description: MIC against gram-negative bacteria
- Assay type: cell-based
- Test conditions: Escherichia coli, E. coli AG07, BM13/pIP135, resistance mechanism AAC(3); read-out: MIC
The following compounds are shown together with reported MIC values.

Compound	MIC
NC[C@@H]1O[C@H](O[C@H]2[C@@H](O)[C@H](O[C@@H]3[C@@H](O)[C@H](N)C[C@H](N)[C@H]3O[C@H]3O[C@H](CO)[C@@H](O)[C@H](O)[C@H]3N)O[C@@H]2CO)[C@H](N)[C@@H](O)[C@@H]1O	8 µg/mL
CN[C@@H]1[C@@H](O)[C@@H](O[C@@H]2[C@@H](O)[C@H](O[C@H]3OC(CN)=CC[C@H]3N)[C@@H](N)C[C@H]2N)OC[C@]1(C)O	16 µg/mL
NC[C@H]1O[C@H](O[C@H]2[C@H](O)[C@@H](O[C@H]3O[C@H](CO)[C@@H](O)[C@H](N)[C@H]3O)[C@H](N)C[C@@H]2N)[C@H](N)C[C@@H]1O	4 µg/mL
NC[C@H]1O[C@H](O[C@H]2[C@H](O)[C@@H](O[C@H]3O[C@H](CO)[C@@H](O)[C@H](N)[C@H]3O)[C@H](N)C[C@@H]2N)[C@H](O)[C@@H](O)[C@@H]1O	8 µg/mL
CNC1C(OC2OC(CO)C(N)C(O)C2O)OC2CC(N)C(OC3C(N)CC(N)C(O)C3O)OC2C1O (centres unmarked)	8 µg/mL

* * *

- Test system: M. bolletii
- Experiment description: MIC against non-tuberculous rapidly-growing mycobacteria, microdilution
- Format: cell-based
- Test conditions: Mycobacteroides abscessus, strain 181739/08 M. bolletii; read-out: minimal inhibitory concentration (MIC)
Some compounds, each annotated with its measured MIC.

Compound	Units label	MIC
CNC1C(OC2OC(CO)C(N)C(O)C2O)OC2CC(N)C(OC3C(N)CC(N)C(O)C3O)OC2C1O (stereo not shown) [Apramycin]	µg/mL	4
NC[C@H]1O[C@H](O[C@H]2[C@H](O)[C@@H](O[C@H]3O[C@H](CO)[C@@H](O)[C@H](N)[C@H]3O)[C@H](N)C[C@@H]2N)[C@H](O)[C@@H](O)[C@@H]1O [Kanamicin A]	µg/mL	64
NC[C@H]1O[C@H](O[C@H]2[C@H](O)[C@@H](O[C@H]3O[C@H](CO)[C@@H](O)[C@H](N)[C@H]3O)[C@H](N)C[C@@H]2N)[C@H](N)C[C@@H]1O [Tobramycin]	µg/mL	32
NCC[C@H](O)C(=O)N[C@@H]1C[C@H](N)[C@@H](O[C@H]2O[C@H](CN)[C@@H](O)[C@H](O)[C@H]2O)[C@H](O)[C@H]1O[C@H]1O[C@H](CO)[C@@H](O)[C@H](N)[C@H]1O [Amikacin]	µg/mL	4

These data points were gathered from patent US9271993B2.
